Provenance of the data: patent US20190315854A1

- target: T1, sIL-6R (soluble IL-6 receptor; SBH Sciences) (human, UniProt P08887 20-365)
- T1 construct: also called human IL-6R
- T1 sequence: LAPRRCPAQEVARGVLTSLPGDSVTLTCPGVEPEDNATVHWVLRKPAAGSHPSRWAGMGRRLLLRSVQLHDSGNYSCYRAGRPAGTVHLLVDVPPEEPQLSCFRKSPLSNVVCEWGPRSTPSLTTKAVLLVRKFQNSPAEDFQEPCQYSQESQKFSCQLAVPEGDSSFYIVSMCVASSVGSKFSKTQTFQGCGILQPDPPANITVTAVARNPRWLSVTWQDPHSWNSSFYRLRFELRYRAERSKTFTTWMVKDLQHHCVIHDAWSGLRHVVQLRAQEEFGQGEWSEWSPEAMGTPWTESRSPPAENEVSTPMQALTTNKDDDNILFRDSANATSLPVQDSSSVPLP
- method-description: SPR (BIAcore 3000), antibody on chip, sIL-6R analyte, 25 C
Returns 1 if the recorded kon is greater than or equal to 300000 M⁻¹ s⁻¹, and -1 otherwise.

q: Does the reported kon for 9# (antibody, human IgG1, kappa, V domains shown, also called Sample # 9) VH: QVQLQESGPGLVRPSQTLSLTCTVSGYSITSDHAWSWVRQPPGRGLEWIGYISYSGIITYNASLKSRVTMLRDTSKNQFSLRLSSVTAADTAVYYCARCLARTTAMDYWGQGSLVTVSS VL: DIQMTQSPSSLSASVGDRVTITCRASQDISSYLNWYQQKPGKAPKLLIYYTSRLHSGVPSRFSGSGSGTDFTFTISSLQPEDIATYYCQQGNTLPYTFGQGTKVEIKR fall at or above the 300000 M⁻¹ s⁻¹ mark?
a: -1

q: Does the reported kon for 31# (antibody, human IgG1, kappa, V domains shown, also called Sample # 31) VH: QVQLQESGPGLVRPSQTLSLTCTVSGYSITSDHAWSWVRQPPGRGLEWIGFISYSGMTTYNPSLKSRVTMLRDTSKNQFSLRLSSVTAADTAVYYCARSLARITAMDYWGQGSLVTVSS VL: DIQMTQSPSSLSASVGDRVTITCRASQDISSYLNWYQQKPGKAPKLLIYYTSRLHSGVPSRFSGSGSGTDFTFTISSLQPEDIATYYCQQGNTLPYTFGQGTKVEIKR fall at or above the 300000 M⁻¹ s⁻¹ mark?
a: 1

q: Does the reported kon for 18# (antibody, human IgG1, kappa, V domains shown, also called Sample # 18) VH: QVQLQESGPGLVRPSQTLSLTCTVSGYSITSDHAWSWVRQPPGRGLEWIGFISYSGITTYNPSLKSRVTMLRDTSKNQFSLRLSSVTAADTAVYYCARCLARITAMDYWGQGSLVTVSS VL: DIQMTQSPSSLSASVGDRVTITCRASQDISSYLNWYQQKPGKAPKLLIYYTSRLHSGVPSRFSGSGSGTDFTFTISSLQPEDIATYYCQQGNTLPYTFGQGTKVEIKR fall at or above the 300000 M⁻¹ s⁻¹ mark?
a: 1

q: Does the reported kon for 27# (antibody, human IgG1, kappa, V domains shown, also called Sample # 27) VH: QVQLQESGPGLVRPSQTLSLTCTVSGYSITSDHAWSWVRQPPGRGLEWIGFISYSGMTTYNPSLKSRVTMLRDTSKNQFSLRLSSVTAADTAVYYCARSLARATAMDYWGQGSLVTVSS VL: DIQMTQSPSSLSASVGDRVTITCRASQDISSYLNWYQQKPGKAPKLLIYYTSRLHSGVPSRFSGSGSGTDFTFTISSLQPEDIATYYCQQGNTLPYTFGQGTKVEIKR fall at or above the 300000 M⁻¹ s⁻¹ mark?
a: 1

q: Does the reported kon for 14# (antibody, human IgG1, kappa, V domains shown, also called Sample # 14) VH: QVQLQESGPGLVRPSQTLSLTCTVSGYSITSDHAWSWVRQPPGRGLEWIGFISYSGITTYNPSLKSRVTMLRDTSKNQFSLRLSSVTAADTAVYYCARSLARITAMDYWGQGSLVTVSS VL: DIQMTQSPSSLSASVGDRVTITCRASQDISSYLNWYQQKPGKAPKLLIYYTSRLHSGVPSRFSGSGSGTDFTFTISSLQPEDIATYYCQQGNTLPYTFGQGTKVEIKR fall at or above the 300000 M⁻¹ s⁻¹ mark?
a: 1

q: Does the reported kon for 24# (antibody, human IgG1, kappa, V domains shown, also called Sample # 24) VH: QVQLQESGPGLVRPSQTLSLTCTVSGYSITSDHAWSWVRQPPGRGLEWIGYISYSGITTYNPSLKSRVTMLRDTSKNQFSLRLSSVTAADTAVYYCARCLARITAMDYWGQGSLVTVSS VL: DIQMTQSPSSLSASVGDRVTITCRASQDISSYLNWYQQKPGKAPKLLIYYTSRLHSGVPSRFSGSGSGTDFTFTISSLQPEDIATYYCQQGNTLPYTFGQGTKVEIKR fall at or above the 300000 M⁻¹ s⁻¹ mark?
a: -1
